Source of measurements: ChEMBL document CHEMBL4376839

Target: Adenosine receptor A3 (Homo sapiens, UniProt P0DMS8)
Sequence (P0DMS8 whole entry): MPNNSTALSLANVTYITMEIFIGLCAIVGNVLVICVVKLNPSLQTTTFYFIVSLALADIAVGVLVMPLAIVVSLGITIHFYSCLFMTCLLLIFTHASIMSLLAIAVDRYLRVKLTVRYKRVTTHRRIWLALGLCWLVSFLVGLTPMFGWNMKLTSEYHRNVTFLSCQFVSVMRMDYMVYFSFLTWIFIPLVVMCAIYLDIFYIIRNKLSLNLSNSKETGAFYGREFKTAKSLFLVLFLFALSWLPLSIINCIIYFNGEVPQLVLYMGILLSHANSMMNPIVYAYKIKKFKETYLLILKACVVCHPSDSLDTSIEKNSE
Binary call on Ki with cut-off 10 µM: strictly below means label 1, and equality or higher means label 0.

{"SMILES TEXT": "CCOc1cccc2cc(-c3ccc(C)cc3)c(=O)oc12", "TARGET": "Adenosine receptor A3 (Homo sapiens, UniProt P0DMS8)", "CLASS NAME": "label 1"}
{"SMILES TEXT": "CCOc1cccc2cc(-c3ccc(OC)cc3)c(=O)oc12", "TARGET": "Adenosine receptor A3 (Homo sapiens, UniProt P0DMS8)", "CLASS NAME": "label 1"}
{"SMILES TEXT": "O=c1oc2c(O)c(O)ccc2cc1-c1ccc(O)c(O)c1", "TARGET": "Adenosine receptor A3 (Homo sapiens, UniProt P0DMS8)", "CLASS NAME": "label 1"}
{"SMILES TEXT": "CC(=O)Oc1ccc(-c2cc3ccc(OC(C)=O)c(OC(C)=O)c3oc2=O)cc1OC(C)=O", "TARGET": "Adenosine receptor A3 (Homo sapiens, UniProt P0DMS8)", "CLASS NAME": "label 0"}
{"SMILES TEXT": "O=c1oc2c(O)c(O)ccc2cc1-c1ccccc1", "TARGET": "Adenosine receptor A3 (Homo sapiens, UniProt P0DMS8)", "CLASS NAME": "label 1"}

**Query** Input CC(=O)COc1cccc2cc(-c3ccc(C)cc3)c(=O)oc12 ; condition: Ki strictly below 10 µM. Does it hold?
**Result** label 1
